- Test system: Plasmodium berghei
- test_method_notes: Luciferase/luciferin-expressing antifolate-resistant parasites were used to infect a culture of HepG2 cells that were pre-incubated with compounds. Infected hepatocytes emit light due to the luciferase reaction. Assay results are presented as the percent inhibition of light emission compared to control. […]
- Assay type: functional
- test_context: sporozoite, HEPG2TOX_HILL_SLOPE 1.6, HEPG2TOX_R_SQUARED 0.897, PBLUC_HILL_SLOPE 1.97, PBLUC_R_SQUARED 0.838, read-out: LUCIFERASE INFECTION ASSAY - IC50
quantity_name: IC50 (nM)
Numbers only; they are read as nM.

## Input Give the reported IC50 for this molecule. `CN(C)c1ccc(-c2cc(Nc3cccc(OCc4ccccc4)c3)ncn2)cc1`
## Output 526

* * *

- System: Plasmodium berghei
- test_method_notes: Luciferase/luciferin-expressing antifolate-resistant parasites were used to infect a culture of HepG2 cells that were pre-incubated with compounds. Infected hepatocytes emit light due to the luciferase reaction. Assay results are presented as the percent inhibition of light emission compared to control. […]
- Type: functional
- test_context: sporozoite, HEPG2TOX_HILL_SLOPE 0.777, HEPG2TOX_R_SQUARED 0.137, read-out: LUCIFERASE INFECTION ASSAY - IC50
pIC50: −log10 of the molar value.
quantity_name: pIC50

## Input GET pIC50 | system: Plasmodium berghei | item: O=C(C(Sc1nc2cc(S(=O)(=O)N3CCCCC3)ccc2o1)c1ccccc1)N1CCCCC1 (stereo unspecified)
## Output < 5.00

* * *

- Test system: Plasmodium berghei
- test_method_notes: Luciferase/luciferin-expressing antifolate-resistant parasites were used to infect a culture of HepG2 cells that were pre-incubated with compounds. Infected hepatocytes emit light due to the luciferase reaction. Assay results are presented as the percent inhibition of light emission compared to control. […]
- Assay type: functional
- test_context: sporozoite, read-out: LUCIFERASE INFECTION ASSAY - IC50
quantity_name: IC50

Answered cases to consult:
{"compound": "COc1cc(C(=O)OC(C)C(=O)Nc2sccc2C(N)=O)ccc1C (stereo not drawn)", "quantity_name": "IC50", "val": "> 10 µM"}
{"compound": "O=C1OC(c2ccccc2)=N/C1=C\\c1ccc([N+](=O)[O-])s1", "quantity_name": "IC50", "val": "> 11 µM"}
{"compound": "Cc1cc(C(=O)N/N=C/c2ccc(Sc3ncccn3)c([N+](=O)[O-])c2)c(C)n1-c1ccccc1", "quantity_name": "IC50", "val": "> 10 µM"}
{"compound": "NC(=O)N1CCCC(C(=O)N2CCCC(c3nc4ccccc4s3)C2)C1 (stereo not drawn)", "quantity_name": "IC50", "val": "> 10 µM"}
{"compound": "Cc1ccc(N2C(=O)C=CC2=O)cc1N1C(=O)C=CC1=O", "quantity_name": "IC50", "val": "7.78 µM"}

## Input Supply IC50 measured with Plasmodium berghei for `O=C(CSc1nnc(Nc2ccccc2)s1)Nc1ccccc1N1CCCC1` .
## Output > 10 µM

## Input Print Plasmodium berghei IC50 for `CCn1c2ccccc2c2cc(N)ccc21` .
## Output > 10 µM

## Input For Plasmodium berghei, give IC50 of the listed compound: CC(C)c1ccc(C2C3CCc4ccccc4C3=NN2C)cc1 (stereo not drawn)
## Output 0.0716 µM

* * *

- Tested on: Plasmodium berghei
- test_method_notes: Luciferase/luciferin-expressing antifolate-resistant parasites were used to infect a culture of HepG2 cells that were pre-incubated with compounds. Infected hepatocytes emit light due to the luciferase reaction. Assay results are presented as the percent inhibition of light emission compared to control. […]
- Type: functional
- test_context: sporozoite, HEPG2TOX_HILL_SLOPE 13.7, HEPG2TOX_R_SQUARED 0.959, PBLUC_HILL_SLOPE 2.28, PBLUC_R_SQUARED 0.72, read-out: LUCIFERASE INFECTION ASSAY - IC50
quantity_name: IC50 (µM)
# value in µM; strip the unit string

## Input Supply recorded IC50 for `O=C(Nc1ncc(Cc2ccc(F)c(F)c2)s1)c1ccc2nc[nH]c2c1` here.
## Output 4.35

* * *

- System: Plasmodium berghei
- test_method_notes: Luciferase/luciferin-expressing antifolate-resistant parasites were used to infect a culture of HepG2 cells that were pre-incubated with compounds. Infected hepatocytes emit light due to the luciferase reaction. Assay results are presented as the percent inhibition of light emission compared to control. […]
- Assay type: functional
- test_context: sporozoite, PBLUC_HILL_SLOPE 1.1, PBLUC_R_SQUARED 0.687, read-out: LUCIFERASE INFECTION ASSAY - IC50
quantity_name: IC50 (µM)
Write it as a number; the unit µM goes unstated.

## Input Specify reported IC50 for the compound shown: `Clc1ccccc1/C=N/Nc1nc(-c2cc(-c3ccccc3)no2)cs1`
## Output 6.48

* * *

- Tested on: Plasmodium berghei
- test_method_notes: Luciferase/luciferin-expressing antifolate-resistant parasites were used to infect a culture of HepG2 cells that were pre-incubated with compounds. Infected hepatocytes emit light due to the luciferase reaction. Assay results are presented as the percent inhibition of light emission compared to control. […]
- Type: functional
- test_context: sporozoite, HEPG2TOX_HILL_SLOPE 9.91, HEPG2TOX_R_SQUARED 0.105, read-out: LUCIFERASE INFECTION ASSAY - IC50
quantity_name: IC50

## Input State its IC50: `CSc1sc(C(=O)NC(=O)Nc2ccccc2Cl)c2c1-c1nocc1CC2`
## Output > 7.86 µM

* * *

- System: Plasmodium berghei
- test_method_notes: Luciferase/luciferin-expressing antifolate-resistant parasites were used to infect a culture of HepG2 cells that were pre-incubated with compounds. Infected hepatocytes emit light due to the luciferase reaction. Assay results are presented as the percent inhibition of light emission compared to control. […]
- Type: functional
- test_context: sporozoite, HEPG2TOX_HILL_SLOPE 10.3, HEPG2TOX_R_SQUARED 0.792, PBLUC_HILL_SLOPE 17.7, PBLUC_R_SQUARED 0.192, read-out: LUCIFERASE INFECTION ASSAY - IC50
quantity_name: IC50 (µM)
State the answer as a number, implicitly in µM.

## Input Provide measured IC50 on Plasmodium berghei for CC1CC1c1ccc(/C=C2\C(=O)Nc3cc(Cl)ccc32)o1 (stereo unspecified) please.
## Output 9.66

* * *

- System: Plasmodium berghei
- test_method_notes: Luciferase/luciferin-expressing antifolate-resistant parasites were used to infect a culture of HepG2 cells that were pre-incubated with compounds. Infected hepatocytes emit light due to the luciferase reaction. Assay results are presented as the percent inhibition of light emission compared to control. […]
- Format: functional
- test_context: sporozoite, HEPG2TOX_HILL_SLOPE 15.6, HEPG2TOX_R_SQUARED 0.458, PBLUC_HILL_SLOPE 155, PBLUC_R_SQUARED 0.194, read-out: LUCIFERASE INFECTION ASSAY - IC50
quantity_name: pIC50
Answer as the number alone; pIC50 is minus log10 of concentration in mol/L.

## Input Given N#CC1(c2ccccc2)C/C(=C\c2cccnc2)C(=O)/C(=C/c2cccnc2)C1 (stereo unspecified) , report its pIC50 on Plasmodium berghei.
## Output 5.32

* * *

- Tested on: Plasmodium berghei
- test_method_notes: Luciferase/luciferin-expressing antifolate-resistant parasites were used to infect a culture of HepG2 cells that were pre-incubated with compounds. Infected hepatocytes emit light due to the luciferase reaction. Assay results are presented as the percent inhibition of light emission compared to control. […]
- Type: functional
- test_context: sporozoite, FFLUC_HILL_SLOPE 2.7, FFLUC_R_SQUARED 0.81, HEPG2TOX_HILL_SLOPE 15, HEPG2TOX_R_SQUARED 0.458, PBLUC_HILL_SLOPE 19.3, PBLUC_R_SQUARED 0.191, read-out: LUCIFERASE INFECTION ASSAY - IC50
quantity_name: pIC50
# log scale: pIC50 equals minus log10 of the concentration in mol/L

## Input For the molecule N#CC1C(=N)Oc2c3c(c4ccccc4c2C1c1ccc(Cl)cc1)C(c1ccc(Cl)cc1)C(C#N)C(=N)O3 (stereo unspecified) , give its measured pIC50 value.
## Output 5.24

* * *

- Tested on: Plasmodium berghei
- test_method_notes: Luciferase/luciferin-expressing antifolate-resistant parasites were used to infect a culture of HepG2 cells that were pre-incubated with compounds. Infected hepatocytes emit light due to the luciferase reaction. Assay results are presented as the percent inhibition of light emission compared to control. […]
- Assay type: functional
- test_context: sporozoite, PBLUC_HILL_SLOPE 15.7, PBLUC_R_SQUARED 0.534, read-out: LUCIFERASE INFECTION ASSAY - IC50
quantity_name: IC50

## Input Supply IC50 value. Item: `O=C(Nc1nc2ccccc2[nH]1)c1cccc(S(=O)(=O)N(Cc2ccccc2)c2ccccc2Cl)c1`
## Output 3.18 µM

* * *

compounds and their reported IC90
- Test system: Plasmodium berghei
- test_method_notes: Luciferase/luciferin-expressing antifolate-resistant parasites were used to infect a culture of HepG2 cells that were pre-incubated with compounds. Infected hepatocytes emit light due to the luciferase reaction. Assay results are presented as the percent inhibition of light emission compared to control. […]
- Format: functional
- test_context: sporozoite, read-out: LUCIFERASE INFECTION ASSAY - IC90

Worked examples follow.
{"compound": "Cc1ccc(C(=O)NCc2nsc(=N/C(=N\\c3ccccc3)c3ccccc3)n2Cc2ccccc2)cc1", "IC90": "> 10 µM"}
{"compound": "COc1ccc(-c2cnc3cnc(-c4cnn(C)c4)cn23)cc1", "IC90": "> 10.8 µM"}
{"compound": "CCN(CC)S(=O)(=O)c1cccc(NC(=O)c2sc(Nc3ccc(C)cc3C)c(C(=O)NC(C)COC)c2N)c1 (stereo not given)", "IC90": "> 10 µM"}
{"compound": "CC(C)Cc1ccc(C(C)c2nn3c(-c4ccco4)nnc3s2)cc1 (stereo not given)", "IC90": "0.257 µM"}
{"compound": "CC(=O)c1cccc(-c2cnc3cnc(-c4cccc(C(N)=O)c4)cn23)c1", "IC90": "> 9.26 µM"}

## Input Using known records, supply IC90 for `COc1ccc(/C=C2\CSc3ccc(Cl)cc3C2=O)cc1`
## Output 5.42 µM

## Input # return recorded IC90 for entry `O=C(Nc1ccc(OCc2nnnn2-c2ccccc2)cc1)c1ccccc1`
## Output > 8.89 µM

## Input Tell us which IC90 value is on record for `CCCCCC(=O)Nc1ccc(C2=Nn3c(Cc4cccc5ccccc45)nnc3SC2)cc1`
## Output > 10 µM

## Input Return IC90 (reported value) for this compound: `CC/N=c1\scc(-c2cc(C)c(C)cc2C)n1/N=C/c1c[nH]c2ccccc12`
## Output 6.13 µM

## Input Respond only with IC90 recorded for `O=C(NCc1ccccn1)c1nn(CCc2ccccc2)c2c1CN(Cc1cccc3c1OCO3)CC2`
## Output > 6.66 µM
